- experiment.summary: Specific activity of purified CHI, absorbance decrease at 384 nm, homoeriodictyol chalcone; further: unit not given here
- Format: biochemical
- settings: purified CHI in 50 mM PBS, 100 μM substrate, 25° C.
property.label: Specific activity, Homoeriodctiol chalcone

CHI4: Chalcone isomerase from Acetoanaerobium noterae, access no. WP_079589066.1 (protein, listed as Acetoanaerobium noterae) ADFEFNPMRSLIYVDVVKEDYRHMLKHWLYRHHIPDSISQFGPYVTKYAFYPALPTPPEGDRFGTIRMQLTEHYWTVNPFTSNFKNKAFTEFFPIDILKWQGNIPDDSKVAALEGEEVVKLEGDDARASGGDNGCPPFIFAFVPICWEEDFKGSQRTVEDGPNYRWQFVMKYPEGVTMKEGDKWFYEEMIPKFKDMPDVLRILSSKIIQQVNGCPYHRVVEMWFNCPSAWYRSAVEKAKEIKKPSWAKYDVFPYLKPKFEIASLFLTDIAESDNYSQYRGYITMR
15.2
